The values you see were collected from patent US20240391928A1.

target: hGHSR1a^WT (Homo sapiens, UniProt Q92847); test: Gαq-dependent intracellular Ca2+ mobilization (iCa2+, miAeq); settings: secondary assay of HTS hits; read-out: Calcium signaling EC50
Sequence (Q92847 whole entry): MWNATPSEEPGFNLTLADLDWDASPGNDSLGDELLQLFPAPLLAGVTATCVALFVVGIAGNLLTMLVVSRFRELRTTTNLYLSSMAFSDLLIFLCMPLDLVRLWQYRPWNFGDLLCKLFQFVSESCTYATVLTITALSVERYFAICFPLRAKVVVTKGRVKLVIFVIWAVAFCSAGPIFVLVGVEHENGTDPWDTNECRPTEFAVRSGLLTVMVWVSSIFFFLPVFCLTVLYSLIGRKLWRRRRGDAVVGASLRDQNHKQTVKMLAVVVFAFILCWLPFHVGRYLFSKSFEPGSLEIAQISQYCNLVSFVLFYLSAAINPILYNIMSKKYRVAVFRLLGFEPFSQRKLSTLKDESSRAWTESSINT
The entries below are paired with their reported EC50.

The following molecules have reported results that may help.
molecule	EC50
COc1cc(C2c3c(oc4cc(C)c(C)cc4c3=O)C(=O)N2CCCN2CCOCC2)ccc1O (stereo not shown)	~19.2 mM
C=CCOc1ccc(C2c3c(oc4ccc(C)cc4c3=O)C(=O)N2CCCN2CCOCC2)cc1 (stereo not shown)	~3.01 mM
CCCCOc1ccc(C2c3c(oc4ccc(C)cc4c3=O)C(=O)N2CCCN(C)C)cc1OCC (stereo not shown)	~26.9 mM

Alright, here's another molecule for you.
get_value(item= CCOc1cc(C2c3c(oc4ccccc4c3=O)C(=O)N2Cc2ccc(OC)cc2)ccc1O (stereo not shown) , readout=EC50) returns ~18.5 mM

---

target: hGHSR1a^WT (Homo sapiens, UniProt Q92847); assay: Gαq-dependent intracellular Ca2+ mobilization (iCa2+, miAeq); details: secondary assay of HTS hits; read-out: Calcium signaling EC50
pEC50: −log10 of the molar value.
quantity: pEC50

The following compounds have reported results that may help.
compound	pEC50
O=C1c2oc3ccc(F)cc3c(=O)c2C(c2cccc([N+](=O)[O-])c2)N1CCCN1CCOCC1 (stereo not drawn) [NCGC00119778]	~1.21
Cc1ccc2oc3c(c(=O)c2c1)C(c1cccc(O)c1)N(CCCN1CCOCC1)C3=O (stereo not drawn) [NCGC00101913]	~1.74
CCCOc1cccc(C2c3c(oc4ccc(F)cc4c3=O)C(=O)N2CCCN2CCOCC2)c1 (stereo not drawn) [NCGC00101919]	~2.82

get_value(item= COc1cccc(C2c3c(oc4ccc(C)cc4c3=O)C(=O)N2CCCN2CCOCC2)c1OC (stereo not drawn) [NCGC00136166] , readout=pEC50) returns ~3.53

get_value(item= Cc1cc(C)c2c(=O)c3c(oc2c1)C(=O)N(Cc1ccco1)C3c1ccc(F)cc1 (stereo not drawn) [NCGC00116418] , readout=pEC50) returns ~2.52

get_value(item= Cc1ccc2oc3c(c(=O)c2c1)C(c1ccc(O)cc1)N(Cc1ccc2c(c1)OCO2)C3=O (stereo not drawn) [NCGC00101948] , readout=pEC50) returns ~1.95

get_value(item= COc1ccc(C2c3c(oc4ccc(F)cc4c3=O)C(=O)N2Cc2ccc3c(c2)OCO3)cc1 (stereo not drawn) [NCGC00101634] , readout=pEC50) returns 5.11

get_value(item= CC(C)c1ccc(C2c3c(oc4ccc(Cl)cc4c3=O)C(=O)N2CCCN2CCOCC2)cc1 (stereo not drawn) [NCGC00119774] , readout=pEC50) returns 5.25

get_value(item= CCOc1cccc(C2c3c(oc4ccc(F)cc4c3=O)C(=O)N2CCOC)c1 (stereo not drawn) [NCGC00101945] , readout=pEC50) returns 5.92
